- System: HCT-15 colon
- method_summary: NCI-60 one-dose screen, 48 h
- details: 10 µM unless noted
About 83,000 compounds went through this panel and 20% of them were active in at least one assay; those are over-represented in the sample as a whole. Activity calls are given as the source filed them. How the source made its calls: active means growth percent below 10; inactive means the rest.
Bench note: report the call from active, inactive

Record excerpt, results attached:
CCOC(=O)c1sc(NC(=O)COc2ccc(/C=C3\CCc4cc(OC)ccc4C3=O)cc2)nc1C; inactive
CCOc1cc(CCNS(=O)(=O)c2ccc(C)cc2)c(C(C)=O)cc1OCC; inactive
CCCCCCCCCCCCCCCCCC1=NC(C)(CO)CO1 (stereo not given); inactive
COc1ccc(-c2cc(-c3nnc(SCC(=O)Nc4ccc(C(C)=O)cc4)n3-c3ccccc3)c3ccccc3n2)cc1OC; inactive

Exercise: Recorded test outcome, item COc1cnc2c(c1)C(=O)c1c-2n(CCCn2ccnc2)c(=O)c2cc(F)ccc12
Key: active

====

- Test system: NCI-H23 lung
- method_summary: NCI-60 one-dose screen, 48 h (100 = growth as untreated, 0 = no growth, -100 = all killed)
- details: 10 µM unless noted
About 83,000 compounds went through this panel and 20% of them were active in at least one assay; those are over-represented in the sample as a whole.
assay_metric: growth (%)
State just the number; it will be interpreted in %.

Check out these entries, answers already filled in.
COc1cc(C2CC(C3C(=O)N(C)C(=O)N(C)C3=O)=NN2C=O)cc(OC)c1OC (stereo not given); 97.3
O=[N+]([O-])c1ccc2[nH]cc(-c3c4ccccc4cc4[nH]c5ccc([N+](=O)[O-])cc5c34)c2c1; 33.1
CC(=O)c1nn(-c2ccccc2)c(=Nc2ccccc2)cc1C; 107
CC12CCC3C(=CCc4cc(O)ccc43)C1CCC2=O (stereo not given); 103

Now let's try a different one.
Exercise: Which growth value belongs to COc1ccc2nc(NC(=O)CN3CCn4c(nnc4C(F)(F)F)C3)sc2c1 ?
Key: 91.6

====

- Test system: CAKI-1 renal
- method_summary: NCI-60 one-dose screen, 48 h
- details: 10 µM unless noted
The panel holds about 83,000 compounds, 20% with a hit somewhere; the sample as a whole holds those more often. Active and inactive are the calls of the source. The calls were made as follows: active = growth percent below 10; inactive = the rest.
Response enum: TRUE for active, FALSE for inactive

C[C@@H]1C[C@@H]([C@@H](CC2CC(=O)NC(=O)C2)OC(=O)CC(=O)c2ccccc2)C(=O)[C@@H](C)C1; TRUE

We now examine a further molecule.
Exercise: Test call, this molecule: C[C@H]1c2cccc(O)c2C(O)=C2C(=O)[C@]3(O)C(O)=C(C(N)=O)C(=O)[C@@H](N(C)C)[C@@H]3[C@@H](O)[C@@H]21
Key: FALSE

====

- System: HS 578T breast
- method_summary: NCI-60 one-dose screen, 48 h
- details: 10 µM unless noted
About 83,000 compounds went through this panel and 20% of them were active in at least one assay; those are over-represented in the sample as a whole. Active and inactive are the calls of the source. How the source made its calls: active means growth percent below 10; inactive means the rest.
Just give me one of these, please: active, inactive

Some solved cases for reference:
O=C1/C(=C/c2ccccc2Cl)CCc2ccccc21; inactive
Cc1ccccc1NC(=O)N/C(N)=N/c1nc2ccccc2s1; inactive
NS(=O)(=O)c1cc(C2(O)NC(=O)c3ccccc32)ccc1Cl (stereo unspecified); inactive
COC(=O)c1c(NC(=O)CSc2nnnn2-c2ccc(OC)cc2)sc(C)c1C; inactive
C[N+]1(C)C2CC[C@@H]1CC(OC(=O)C(O)c1ccccc1)C2 (stereo partly specified); inactive
COc1ccc2nc(N/N=C(\C)c3ccccn3)cc(C)c2c1; active
C/C=C(/C(=C/C)c1ccc(O)cc1)c1ccc(O)cc1; inactive
CCSc1nc(-c2ccc(F)cc2)c(C#N)c(=O)[nH]1; inactive

Exercise: What is the recorded call for this compound in the test? Nc1ccn(C2O[C@H](CO)[C@@H](O)[C@@H]2O)c(=O)n1 (stereo partly specified)
Key: inactive

Exercise: And for COC(=O)[C@H]1[C@H]2C[C@@H]3c4[nH]c5cc(OC)ccc5c4CCN3C[C@H]2C[C@@H](OC(=O)/C=C/c2cc(OC)c(OC)c(OC)c2)[C@@H]1OC ?
Key: inactive

Exercise: Then O=C(N/N=C/c1cccc(O)c1O)c1ccccc1 ?
Key: inactive

Exercise: Same read-out for O=C(Nc1ccccc1)P(=O)(O)c1ccccc1 ?
Key: inactive

Exercise: Also need CCOC(=O)N1CCC(N=C2CSc3nnc(-c4cc(C(F)(F)F)cc(C(F)(F)F)c4)n3N2)CC1 , thanks.
Key: inactive

====

- Tested on: HOP-62 NSCLC
- method_summary: NCI-60 one-dose screen, 48 h
- details: 10 µM unless noted
About 83,000 compounds went through this panel and 20% of them were active in at least one assay; those are over-represented in the sample as a whole. Active and inactive are the calls of the source. The calls were made as follows: active = growth percent below 10; inactive = the rest.
Allowed answers: active, inactive

Example entries and their recorded answers appear below.
CCc1nn2c(-c3ccc(Cl)cc3C)c(-c3cc(OC)c(OC)c(OC)c3)nc2s1; inactive
c1ccc(Nc2ccc(Nc3nc(-c4ccccc4)nc4ccccc34)cc2)cc1; inactive
O=c1ccn(C2CC=C(CO)O2)c(=O)[nH]1 (stereo not given); inactive

Lab note: next compound to report on.
Exercise: Entry Cc1cccc2nnc(-c3ccccc3)n12 : call = ?
Key: inactive

====

- Test system: RPMI-8226 leukemia
- method_summary: NCI-60 one-dose screen, 48 h
- details: 10 µM unless noted
About 83,000 compounds went through this panel and 20% of them were active in at least one assay; those are over-represented in the sample as a whole. Calls of active or inactive are those of the source. Rule for the calls: active = growth percent below 10; inactive = the rest.
Assign a class; possible classes are active, inactive

CCOc1cc(/C=C/C(=O)C(C(=O)/C=C/c2ccc(OC(=O)CNc3nc4ccccc4[nH]3)c(OCC)c2)C(=O)CNc2nc3ccccc3[nH]2)ccc1OC(=O)CNc1nc2ccccc2[nH]1; active
N#Cc1ccccc1C#Cc1ccccc1C#Cc1ccc(OCCCCCCOc2ccc(C#Cc3ccccc3C#Cc3ccccc3C#N)cc2)cc1; inactive

Exercise: Test call for this molecule, please: CN[C@@H]1C(OC2[C@H](O[C@H]3[C@H](O)[C@@H](O)[C@H](N=C(N)N)[C@@H](O)[C@@H]3N=C(N)N)OC(C)[C@]2(O)CO)OC(CO)C(O)C1O (stereo partly drawn)
Key: inactive

Exercise: Also check CCN1CC2=C(Nc3nc(SC)[nH]c(=O)c3C2c2cc(OC)c(OC)c(OC)c2)/C(=C/c2cc(OC)c(OC)c(OC)c2)C1 (stereo not drawn)
Key: inactive

====

- Tested on: MDA-MB-231 breast
- method_summary: NCI-60 one-dose screen, 48 h (100 = growth as untreated, 0 = no growth, -100 = all killed)
- details: 10 µM unless noted
The panel holds about 83,000 compounds, 20% with a hit somewhere; the sample as a whole holds those more often.
For each record, check the reported growth: if it is below 90% write class 1, else write class 0.

Check out these entries, answers already filled in.
O=C1Nc2ccc(Cl)cc2/C1=C/c1cccs1; class 1
O=C1C(=O)/C(=C/c2ccccc2)CCCCCC/C1=C/c1ccccc1; class 0
Cc1ccc(-c2cc(-c3ccccc3)n(-c3ccccc3)n2)cc1; class 0
O=C(C(=O)c1cc(Br)ccc1O)c1cc(Br)ccc1O; class 1

Please turn your attention to the following entry.
Exercise: Dear reviewer, please state whether CCOC(=O)C1=CCC(n2cc(C)c(=O)[nH]c2=O)O1 (stereo unspecified) has growth strictly beneath 90%.
Key: class 0

====

- System: HOP-62 NSCLC
- method_summary: NCI-60 one-dose screen, 48 h (100 = growth as untreated, 0 = no growth, -100 = all killed)
- details: 10 µM unless noted
This is part of a sample that, as a whole, favours compounds with a hit. Of some 83,000 tested, about 20% had one in any assay. Activity calls are given as the source filed them. Rule for the calls: active = growth percent below 10; inactive = the rest.
growth by entry:

O=C1c2cccc(NCCN=Cc3ccccc3O)c2C(=O)c2c(NCCN=Cc3ccccc3O)cccc21; 17.6% (inactive)
CSc1nc(N)c2c(n1)N(C)C=NS2(=O)=O; 123% (inactive)
COc1ccc(-n2cnc3cc(C(=O)N4CCCCC4)ccc32)cc1; 91.4% (inactive)
Nc1ccccc1C#Cc1ccccc1C#Cc1ccc(OCCCCCCOc2ccc(C#Cc3ccccc3C#Cc3ccccc3N)cc2)cc1; 93.9% (inactive)
COc1cccc(N2CCN(c3cccc(C)n3)CC2)c1; 87.7% (inactive)

Exercise: Data request, read-out growth, for COc1cc(/C=C/C(=O)C(C(=O)/C=C/c2ccc(OC(=O)CCNc3nnc(C)s3)c(OC)c2)C(=O)CCNc2nnc(C)s2)ccc1OC(=O)CCNc1nnc(C)s1
Key: 27.6% (inactive)

Exercise: // query: CN1CCN(c2nc3scc(-c4ccccc4)c3c(=O)[nH]2)CC1
Key: 103% (inactive)

Exercise: Next record, please: COc1ccc(-c2ccc(O)c(C(=O)/C=C/c3cc(OC)c(OC)c(OC)c3)c2)cc1
Key: 103% (inactive)

Exercise: Now this one: CC1(C)CC2(C)CC(=O)C1C(C(=O)O)C2C(=O)O (stereo not given)
Key: 105% (inactive)

Exercise: Here is the next molecule: O=C(Nc1ccc2c(c1)C(=O)c1ccccc1-2)c1ccccc1
Key: 44.3% (inactive)
